- System: TK-10 renal
- Assay details: NCI-60 one-dose screen, 48 h
- Stated conditions: 10 µM unless noted
This is part of a sample that, as a whole, favours compounds with a hit. Of some 83,000 tested, about 20% had one in any assay. Activity calls are given as the source filed them. The calls were made as follows: active = growth percent below 10; inactive = the rest.
Mark one answer only. Choices: active, inactive

- Molecule: "CCCCCCCCCCCCCCCC(=O)OC[C@@]1(O)C[C@@]23CC[C@@H]4C(C)(C)CCC[C@@]4(C)[C@@H]2CC[C@H]1C3"
  Group: "inactive"
- Molecule: "CC[C@@]12C=CCN3CC[C@]4(c5cc(NC(=O)COc6cc(OCC(=O)Nc7cc8c(cc7OC)N(C)[C@H]7[C@@](O)(C(=O)OC)[C@H](OC(C)=O)[C@]9(CC)C=CCN%10CC[C@]87[C@@H]%109)cc7oc(-c8ccccc8)cc(=O)c67)c(OC)cc5N(C)[C@@H]4[C@](O)(C(=O)OC)[C@H]1OC(C)=O)[C@H]32"
  Group: "inactive"
- Molecule: "N/C(=N\\N=C\\c1cc2ccccc2s1)N/N=C/c1cc2ccccc2s1"
  Group: "inactive"
- Molecule: "O=C(Nc1ccc2cc3ccc(NC(=O)NC4CCCCC4)cc3nc2c1)NC1CCCCC1"
  Group: "inactive"
- Molecule: "c1ccc2c(-c3c4ccsc4cc4[nH]c5ccccc5c34)c[nH]c2c1"
  Group: "inactive"
- Molecule: "Cc1ccc(Nc2cc(=S)nc(N)[nH]2)cc1C"
  Group: "inactive"

Q. Please let me know the test result on file for Nc1ncc(C#Cc2cncc(NC(=O)c3cccc(C(F)(F)F)c3)c2)c2cccnc12 .
A. inactive

Q. Please let me know the test result on file for COc1ccc(C(=O)c2cc3c(N)c(C(=O)Nc4cccc(Br)c4C)sc3nc2C)cc1 .
A. inactive

Q. Please let me know the test result on file for COc1ccc(C(O)c2cc3c(N)c(C(=O)Nc4ccc(Cl)cc4)sc3nc2C)cc1 (centres undefined) .
A. inactive

Q. Please let me know the test result on file for CCCCCCNC(=O)Oc1ccc(/C(=C(/CC)Cc2ccccc2)c2ccc(OCCN(CC)CC)cc2)cc1 .
A. inactive

Q. Please let me know the test result on file for COc1ccc(-c2nc(SCCC(C)C)nc(N/N=C(/C)c3ccc(C)cc3)c2C#N)cc1 .
A. inactive

Q. Please let me know the test result on file for COC(=O)C1NC(=S)N(c2ccc(Cl)cc2)C1/C=C/c1ccccc1 (centres undefined) .
A. inactive

Q. Please let me know the test result on file for CCCCCCOc1ccc(C(=N)N(CCCC)CCCC)c2ccccc12 .
A. active

Q. Please let me know the test result on file for COc1cccc(/C=C2\COc3ccc(-c4ccccc4)cc3C2=O)c1 .
A. active

Q. Please let me know the test result on file for CCOC(=O)c1c(SC)nn(-c2cc(=O)[nH]c3ccc(Br)cc23)c1N .
A. inactive

Q. Please let me know the test result on file for CCOC(=O)Oc1c(OC)cc(C(=O)O[C@@H]2C[C@@H]3CN4CCc5c([nH]c6cc(OC)ccc56)[C@H]4C[C@@H]3[C@H](C(=O)OC)[C@H]2OC)cc1OC .
A. inactive

Q. Please let me know the test result on file for CCN1C(=O)/C(=c2\sc3n(c2=O)NC2C(N=3)N(CC)C(=O)N2CC)c2ccccc21 (centres undefined) .
A. inactive

Q. Please let me know the test result on file for CCC(C)N(CCNc1cc(OC)cc2cccnc12)CCC(C)C (centres undefined) .
A. inactive

Q. Please let me know the test result on file for N#Cc1cc(-c2nc3ccccc3s2)c(=O)n(NS(=O)(=O)c2ccc(Cl)cc2)c1N .
A. inactive

###

- System: HOP-62 NSCLC
- Assay details: NCI-60 one-dose screen, 48 h (100 = growth as untreated, 0 = no growth, -100 = all killed)
- Stated conditions: 10 µM unless noted
The panel holds about 83,000 compounds, 20% with a hit somewhere; the sample as a whole holds those more often.
Measured metric: growth (%)
Just the number please, in %, no unit attached.

These solved cases illustrate the format of a correct answer.
- Compound: "CC(=O)N1N=C(c2cccc(Nc3ccncc3)c2)CC1c1ccc2c(c1)OCO2 (centres undefined)"
  growth (%): 89.4
- Compound: "CC(C)[N+](C)(CCOC(COc1ccccc1)COc1ccccc1)C(C)C"
  growth (%): 98.6
- Compound: "CC(=O)CCSc1ccc(OC(C)=O)cc1"
  growth (%): 98
- Compound: "CCN(CC)CCCC(Nc1c2ccc(Cl)cc2nc2ccc(OC)cc12)c1ccc(Cl)cc1 (centres undefined)"
  growth (%): 25.4
- Compound: "CCNC(=O)c1[nH]cc(-c2ccc(OC)cc2)c1-c1cc(OC)cc(OC)c1"
  growth (%): 97.5
- Compound: "COc1ccc(Nc2nc(N)nc3c2CCc2occc2-3)cc1"
  growth (%): 98.4

Q. // lookup growth for COc1ccc(C2CC(c3cccc(Nc4ccncc4)c3)=NN2c2ccc(Cl)cc2)cc1 (centres undefined)
A. 25.3

Q. // lookup growth for C=C1C(=O)O[C@H]2[C@H]1CC/C(COC(=O)CCCCCC(=O)OC/C1=C/CC[C@@]3(C)O[C@H]3[C@H]3OC(=O)C(=C)[C@@H]3CC1)=C\CC[C@@]1(C)O[C@@H]21
A. 85.6

Q. // lookup growth for COc1cc2c(cc1[N+](=O)[O-])-c1ccc([N+](=O)[O-])cc1/C2=N/NC(N)=S
A. 99.9

###

- Tested on: SN12C renal
- Assay details: NCI-60 one-dose screen, 48 h
- Stated conditions: 10 µM unless noted
Compounds without any hit were thinned out: in the full panel of roughly 83,000, 20% have a hit. Calls of active or inactive are those of the source. Rule for the calls: active = growth percent below 10; inactive = the rest.
Mark one answer only. Choices: active, inactive

- Molecule: "Clc1cc(Cl)cc(N2N=C(c3cccc(Nc4ccncc4)c3)CC2c2ccc(Br)cc2)c1 (stereo not given)"
  Group: "inactive"
- Molecule: "C=C1C(=O)O[C@H]2[C@H]1CC/C(COC(=O)NCCc1c[nH]c3ccc(Cl)cc13)=C\\CC[C@@]1(C)O[C@@H]21"
  Group: "active"
- Molecule: "CCc1c(Nc2ccc(C)cc2)[nH]c(N)nc1=S"
  Group: "inactive"
- Molecule: "O=C1CCC(NC(=S)Nc2ccccc2)N1 (stereo not given)"
  Group: "inactive"

Q. Please let me know the test result on file for CC(C)Cc1ccc(C(C)C(=O)NCc2c[nH]c3ccc(Cl)cc23)cc1 (stereo not given) .
A. inactive

###

- Tested on: SW-620 colon
- Assay details: NCI-60 one-dose screen, 48 h
- Stated conditions: 10 µM unless noted
The panel holds about 83,000 compounds, 20% with a hit somewhere; the sample as a whole holds those more often. Calls of active or inactive are those of the source. The calls were made as follows: active = growth percent below 10; inactive = the rest.
Mark one answer only. Choices: active, inactive

- Compound: "Cc1[nH]n(C(=O)c2ccncc2)c(=O)c1N=Nc1ccc(F)c(Cl)c1"
  Group: "inactive"
- Compound: "C=C1C(=O)O[C@H]2[C@H]1CC/C(COC(=O)/C=C/c1c[nH]c3ccccc13)=C\\CC[C@@]1(C)O[C@@H]21"
  Group: "active"
- Compound: "COc1ccc(/C=C2\\COc3ccc(-c4ccccc4)cc3C2=O)cc1O"
  Group: "active"
- Compound: "COc1ccc(/C(C)=N/NC(=O)CSc2nc3ccccc3c(=O)n2Cc2ccc(S(N)(=O)=O)cc2)c(OC)c1"
  Group: "inactive"
- Compound: "Cc1ccc2[nH]c(=O)cc(-n3nncc3COc3ccc(C=O)cc3)c2c1"
  Group: "inactive"

Q. Please let me know the test result on file for Cc1ccc2[nH]c(=S)n(-c3ccc(S(=O)(=O)Nc4ccc(Cl)nn4)cc3)c(=O)c2c1 .
A. inactive

Q. Please let me know the test result on file for S=c1[nH]cccc1-c1nnc2n1Nc1nc3ccc(Cl)cc3cc1CS2 .
A. inactive

Q. Please let me know the test result on file for CN1CCN(c2cnc(C(=O)Nc3cc(F)cc4cccnc34)cn2)CC1 .
A. inactive

Q. Please let me know the test result on file for CC(=O)N1c2ccccc2NC2=C(C(=O)N(Cc3ccccc3)C2(C)C)C1c1ccco1 (centres undefined) .
A. inactive

###

- Tested on: HT29 colon
- Assay details: NCI-60 one-dose screen, 48 h (100 = growth as untreated, 0 = no growth, -100 = all killed)
- Stated conditions: 10 µM unless noted
Compounds without any hit were thinned out: in the full panel of roughly 83,000, 20% have a hit.
Criterion: growth strictly less than 70%. Met: criterion met. Not met: criterion not met.

Q. Hello, is growth of the following compound strictly smaller than 70%? CC1(C)CN(Cc2ccccc2)CCN1Cc1ccccc1
A. criterion not met

Q. Hello, is growth of the following compound strictly smaller than 70%? Clc1ccc(C2CC(c3cccc(Nc4ccncc4)c3)=NN2c2cc(Cl)cc(Cl)c2)cc1 (stereo not given)
A. criterion met

Q. Hello, is growth of the following compound strictly smaller than 70%? Cc1nccc2c3ccc(OCc4cn(-c5ccc(Cl)cc5)nn4)cc3n(CCCc3ccccc3)c12
A. criterion met

Q. Hello, is growth of the following compound strictly smaller than 70%? CC(C)(O)C1CCCN1C(=O)c1ccccc1I (stereo not given)
A. criterion not met

Q. Hello, is growth of the following compound strictly smaller than 70%? O=C(Nc1nc(-c2ccc(Br)cc2)cs1)c1cc(-c2ccc(Br)cc2)nc2ccc(Cl)cc12
A. criterion not met

Q. Hello, is growth of the following compound strictly smaller than 70%? CCCCCCC/C=C/[C@H]1O[C@]2(O)C(=O)C=C3C[C@@H](O[C@@H]4O[C@H](CO)[C@@H](O)C(O)[C@@H]4O)C[C@@H]3[C@H]2C=C1C (stereo not given in full)
A. criterion met

Q. Hello, is growth of the following compound strictly smaller than 70%? Cn1c(COC(=O)NCCN2CCOCC2)nc2c(N3CCOCC3)nc(-c3ccccc3)nc21
A. criterion met

Q. Hello, is growth of the following compound strictly smaller than 70%? Clc1ccc2c(c1)c(-c1ccccc1)nc1nncn12
A. criterion not met

Q. Hello, is growth of the following compound strictly smaller than 70%? CCCCCCNC(=O)Oc1ccc(/C(=C(/CC)Cc2ccccc2)c2ccc(OCCN(CC)CC)cc2)cc1
A. criterion met

Q. Hello, is growth of the following compound strictly smaller than 70%? CC(=O)N1N=C(c2cccc(Nc3ccncc3)c2)CC1c1ccccc1 (stereo not given)
A. criterion met
